test-method-notes: Half life in Caco-2 cells in 37degC at 500 uM
Format: ADME, cell-based, Colon
condition-description: human, Caco-2 cells
measure: half-life at 500 µM (min)
Write the answer as a number in min, unit excluded.

Query: Return reported half-life at 500 µM; argument: CC(C)C(N)C(=O)OCCOP1(=O)CO[C@@H](Cn2ccc(N)nc2=O)CO1 (stereo partly specified)
Reply: 20.2

----------
test-method-notes: Stability in phosphate buffer in pH 7 at 37 degC at 500 uM
Assay type: physicochemical
condition-description: phosphate buffer, pH 7
measure: half-life at 500 µM (h)
Write down the numeric answer in h and omit the unit.

Query: Dear colleague, I am looking for the recorded half-life at 500 µM of the following compound: CC(C)C(N)C(=O)OCCOP1(=O)CO[C@@H](Cn2ccc(N)nc2=O)CO1 (stereo partly specified)
Reply: 3.5

----------
test-method-notes: Stability in phosphate buffer in pH 6.5 at 37 degC at 500 uM
Format: physicochemical
measure: half-life at 500 µM
The answer consists of two parts: a number and, after it, its unit.

Query: What half-life at 500 µM value was documented for this molecule, Nc1ccn(C[C@H]2COP(=O)(OCCOC(=O)C(N)Cc3ccccc3)CO2)c(=O)n1 (stereo partly specified) ?
Reply: 3.7 h

----------
test-method-notes: AUC (0 to infinity) in rat at 0.1 mg, iv
Format: ADME, organism-based
Design: dose 0.1 mg, route intravenous, time infinity
condition-description: plasma
measure: AUC(0-inf)

Query: Item Nc1ccn(C[C@H]2COP(=O)(O)CO2)c(=O)n1 [CYCLIC CIDOFOVIR] has what recorded AUC(0-inf)?
Reply: 472 ng·h/mL

----------
test-method-notes: Half life in Sprague-Dawley rat intestinal lumen in 37degC at 500 uM
Type: ADME
condition-description: Sprague-Dawley, rat intestinal lumen
measure: half-life at 500 µM (h)
Your answer is read as h, so omit the unit and give the number.

Query: For CC(C)C(N)C(=O)OCCOP1(=O)CO[C@@H](Cn2ccc(N)nc2=O)CO1 (stereo partly specified) , what is its reported half-life at 500 µM?
Reply: 2.36
